Test system: Streptococcus pyogenes C203
Assay: broth micro-dilution MIC
Assay type: cell-based
Description: The MIC's were determined using a standard broth micro-dilution assay.
Measured MIC by item

{"molecule": "CNC(CC(C)C)C(=O)NC1C(=O)NC(CC(N)=O)C(=O)NC2C(=O)NC3C(=O)NC(C(=O)NC(C(=O)O)c4cc(O)cc(O)c4-c4cc3ccc4O)C(OC3CC(C)(N)C(O)C(C)O3)c3ccc(c(Cl)c3)Oc3cc2cc(c3OC2OC(CO)C(O)C(O)C2OC2CC(C)(NCCCCC3CCCCC3)C(O)C(C)O2)Oc2ccc(cc2Cl)C1O (stereo not drawn)", "MIC": "≤ 0.06 µg/mL"}
{"molecule": "CNC(CC(C)C)C(=O)NC1C(=O)NC(CC(N)=O)C(=O)NC2C(=O)NC3C(=O)NC(C(=O)NC(C(=O)O)c4cc(O)cc(O)c4-c4cc3ccc4O)C(OC3CC(C)(N)C(O)C(C)O3)c3ccc(c(Cl)c3)Oc3cc2cc(c3OC2OC(CO)C(O)C(O)C2OC2CC(C)(NCC3CCC(Cc4ccccc4)CC3)C(O)C(C)O2)Oc2ccc(cc2Cl)C1O (stereo not drawn)", "MIC": "≤ 0.06 µg/mL"}
{"molecule": "CNC(CC(C)C)C(=O)NC1C(=O)NC(CC(N)=O)C(=O)NC2C(=O)NC3C(=O)NC(C(=O)NC(C(=O)O)c4cc(O)cc(O)c4-c4cc3ccc4O)C(OC3CC(C)(N)C(O)C(C)O3)c3ccc(c(Cl)c3)Oc3cc2cc(c3OC2OC(CO)C(O)C(O)C2OC2CC(C)(NCc3cccc4ccccc34)C(O)C(C)O2)Oc2ccc(cc2Cl)C1O (stereo not drawn)", "MIC": "≤ 0.06 µg/mL"}
